molecular target: PDE4B2 (Homo sapiens); construct: expressed in transfected cells; host or cells: Flp-In-293 (Flpin-293-PDE4B2 [sic]); test: PDE4B2 cell experiment (cAMP, Eu-cAMP tracer / Ulight-anti-cAMP); type: cell-based; conditions: Flpin-293-PDE4B2 cells, Foskolin
Sequence (Q07343 1-564 isoform Q07343-2): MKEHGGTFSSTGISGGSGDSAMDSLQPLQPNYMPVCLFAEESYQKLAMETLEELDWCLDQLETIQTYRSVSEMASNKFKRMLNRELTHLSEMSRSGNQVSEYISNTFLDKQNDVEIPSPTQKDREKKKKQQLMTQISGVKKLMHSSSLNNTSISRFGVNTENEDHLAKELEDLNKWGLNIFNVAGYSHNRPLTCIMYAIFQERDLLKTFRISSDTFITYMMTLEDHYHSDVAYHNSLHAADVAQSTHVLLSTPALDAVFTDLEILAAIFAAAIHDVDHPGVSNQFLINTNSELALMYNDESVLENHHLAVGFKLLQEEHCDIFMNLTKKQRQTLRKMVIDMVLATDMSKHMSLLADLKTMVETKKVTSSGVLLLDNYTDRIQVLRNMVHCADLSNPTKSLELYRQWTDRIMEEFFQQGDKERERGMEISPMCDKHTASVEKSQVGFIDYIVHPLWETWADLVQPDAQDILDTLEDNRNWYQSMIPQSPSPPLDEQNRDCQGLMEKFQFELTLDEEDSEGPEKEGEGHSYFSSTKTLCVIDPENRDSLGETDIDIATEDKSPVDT
pIC50: −log10 of the molar value.
ENDPOINT LABEL: pIC50

| COMPOUND | OBSERVED |
| --- | --- |
| [O-][S+]1CCc2nc(N3CCc4ncsc4C3)nc(NC3(CO)CCC3)c21 (stereo not drawn) | 6.82 |
| [O-][S+]1CCc2nc(N3CCc4cc(F)ccc4C3)nc(NC3(CO)CCC3)c21 (stereo not drawn) | 7.54 |
| [O-][S@+]1CCc2nc(N3CCc4nn5cc(Cl)cnc5c4C3)nc(NC3(CO)CCC3)c21 | 7.53 |
| [O-][S+]1CCc2nc(N3Cc4nn5cc(Cl)cnc5c4C3)nc(NC3(CO)CCC3)c21 (stereo not drawn) | 6.38 |
| C[C@H]1c2ccc(Cl)cc2CCN1c1nc2c(c(NC3(CO)CCC3)n1)[S@+]([O-])CC2 | 7.44 |

P = [O-][S+]1CCc2nc(N3CCc4cc(Cl)cc(Cl)c4C3)nc(NC3(CO)CCC3)c21 (stereo not drawn)
Q = [O-][S@+]1CCc2nc(N3CC[C@H]4c5ccc(Cl)cc5OC[C@@H]4C3)nc(NC3(CO)CCC3)c21
R = [O-][S+]1CCc2nc(N3CCc4sccc4C3)nc(NC3(CO)CCC3)c21 (stereo not drawn)
S = [O-][S+]1CCc2nc(N3CCc4c(Cl)cccc4C3)nc(NC3(CO)CCC3)c21 (stereo not drawn)
Task: Ordering: ascending pIC50. Answer format: list of labels, ordered as asked.
Output: Q, S, R, P
(Q: 6.25, S: 6.69, R: 7.05, P: 7.63)

Data origin, for the record: patent EP4678644A1
